- system under test: T1, DFNB31_3, Q9P202
- T1 sequence (Q9P202 811-907, limits assumed, looked up): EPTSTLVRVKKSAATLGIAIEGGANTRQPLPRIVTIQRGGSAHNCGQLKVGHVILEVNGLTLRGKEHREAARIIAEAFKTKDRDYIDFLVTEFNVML
- experiment description: holdup assay
- Parameters: key: below the threshold = too weak to quantify, mostly under pKd 3.1 to 4
- applied conditions: plain residues with an end cap or a label only (N-terminal biotin on a linker: ado-ado)
# label = Condition met if pKd >= 4 else Condition not met

[[record]]
binder = "GQEEQVTTRL [TRPC5, Q9UL62]"
class_assignment = "Condition not met"

[[record]]
binder = "QSLNRMEYIV [JAG1, P78504]"
class_assignment = "Condition not met"

[[record]]
binder = "QHKTQLQTLI [BPIFA2, Q96DR5]"
class_assignment = "Condition met"

[[record]]
binder = "TASPAKETSF [SLC2A7, Q6PXP3]"
class_assignment = "Condition not met"

